# EC50 per record follows
Assay Target: T1, recombinant human KLK5 C-6His (Novoprotein, Catalog No. C415) (human, UniProt Q9Y337 23-293)
T1 construct: Bought protein; also called KLK5 protein (Novoprotein); not shown: C-terminal 6xHis tag ('C-6His')
Assay Name: ELISA on captured KLK5 C-6His; binder incubated in human serum, day 14
Field: numeric (nM). Do not append units.

* Spink9-183.Fc (SEQ ID NO: 57) (Fc fusion, Mutant SPINK9 domain fused directly to a C-terminal IgG Fc) IECAKQTKQMVDCSHYKKLPPQQQAYCTRDYDPICGSDGKTYKNDCFFCSKVKKTDGTLKFVHFGKCEPKSCDKTHTCPPCPAPEAAGGPSVFLFPPKPKDTLMISRTPEVTCVVVDVSHEDPEVKFNWYVDGVEVHNAKTKPREEQYNSTYRVVSVLTVLHQDWLNGKEYKCKVSNKALPAPIEKTISKAKGQPREPQVYTLPPSREEMTKNQVSLTCLVKGFYPSDIAVEWESNGQPENNYKTTPPVLDSDGSFFLYSKLTVDKSRWQQGNVFSCSVLHEALHSHYTQKSLSLSPGK | 0.1

Now let's try a different one.
Consider Spink9-112.K62G.Fc (SEQ ID NO: 56) (Fc fusion, Mutant SPINK9 domain fused directly to a C-terminal IgG Fc) IECAKQTKQMVDCSHYKKLPPEQELYCTREYDPICGSDGKTYGNDCFFCSKVKKTDGTLKFVHFGKCEPKSCDKTHTCPPCPAPEAAGGPSVFLFPPKPKDTLMISRTPEVTCVVVDVSHEDPEVKFNWYVDGVEVHNAKTKPREEQYNSTYRVVSVLTVLHQDWLNGKEYKCKVSNKALPAPIEKTISKAKGQPREPQVYTLPPSREEMTKNQVSLTCLVKGFYPSDIAVEWESNGQPENNYKTTPPVLDSDGSFFLYSKLTVDKSRWQQGNVFSCSVLHEALHSHYTQKSLSLSPGK . Its measured EC50 is 0.17
